The measured values listed here are drawn from ChEMBL document CHEMBL1201862.

# System: U-251
# TEST NAME: NCI tumour cell line growth inhibition, 48 h
Calls of active or inactive are those of the source. No stated cut-off is given here; in the data, active = GI50 up to about 1.1 µM and inactive = higher.
Reply using exactly one outcome from TRUE (active), FALSE (inactive)

COMPOUND	LABEL
COC(=O)c1cc2c(cc1Cl)Sc1nnc(Nc3ccccc3)n1S2(=O)=O	FALSE

Req: Write down the call the test reported for this compound. Item: Cc1cc(O)c2c3c(ccc2c1)C(=O)c1c(O)cccc1C3=O [TETRANGULOL]
Resp: FALSE

Req: I'd appreciate the recorded outcome for COc1cccc2c1[C@H]1CO[C@H]3C4C[C@H](C(=O)O)C([C@@H](C2)N13)N4C (some centres not stated) from this test.
Resp: FALSE

Req: Record lookup: outcome of this test for CCCCCCCCCCCCCCCCNc1nc(=O)n(C2CC(O)C(CO)O2)cc1F (configuration not stated) ?
Resp: FALSE

Req: What outcome does the record of this test show for Cn1c(=O)oc2cc(C(O)CN3CCN(Cc4ccc5c(c4)OCO5)CC3)ccc21 (configuration not stated) ?
Resp: FALSE

Req: # outcome recorded in this test, key = "Cc1ccc(-c2cc(=O)c3cc(C)c(C)c(C(=O)O)c3o2)cc1[N+](=O)[O-]"
Resp: FALSE

###

# System: SK-OV-3
# TEST NAME: NCI tumour cell line growth inhibition, 48 h
Active and inactive are the calls of the source. No stated cut-off is given here; in the data, active = GI50 up to about 1.1 µM and inactive = higher.
I would appreciate it if you answered using one of these outcomes: YES (active), NO (inactive)

COMPOUND	LABEL
Cc1ccc(-n2cc(-c3ccc(Cl)cc3)c3c(NNC(=S)NCc4ccccc4)ncnc32)cc1	NO
CCN(CC)CCCC(C)Nc1ccnc2cc(Cl)ccc12 (stereo unspecified) [CHLOROQUINE PHOSPHATE]	NO
CSC1=C(SC)C(=O)c2cn(C)c(=O)cc2C1=O	NO
CCSCN(C)c1nc(N(C)C)nc(N(C)C)n1	NO

Req: How was "Clc1ccccc1/C=c1\nc(-c2ccccc2)n2c1nc1ccccc12" classified in this test?
Resp: NO

Req: Tell me the assay call for "CCN(CC)CCCNc1c2cc(OC)ccc2nc2cccc([N+](=O)[O-])c12" please.
Resp: YES

Req: What classification did "CCC/N=C/c1c(O)c(O)c(C(C)C)c2cc(C)c(-c3c(C)cc4c(C(C)C)c(O)c(O)c(/C=N/CCC)c4c3O)c(O)c12" end up with in this test?
Resp: NO

Req: Dear all, I need the recorded test outcome for "COc1cc(C=O)cc(O)c1O" , thank you.
Resp: NO

###

# Test system: NCI-H23
# TEST NAME: NCI tumour cell line growth inhibition, 48 h
The source made the active and inactive calls. Cut-off read from the data, not from the text of the source: active = GI50 up to about 1.1 µM and inactive = higher.
MEASUREMENT TYPE: GI50

COMPOUND	GI50
CC(C)[C@](O)(C(=O)OCC1CC[N+]2([O-])CC[C@@H](O)C12)[C@H](C)O (some centres undefined)	> 375 µM (inactive)

Below are 4 compounds. Give each one its GI50.
1. O=C(O)c1cccc(OCCO)c1
2. CC(=O)OCC1OC(SC2=N/C(=C\c3cc4c(=O)c5ccccc5sc4s3)C(=O)N2c2ccccc2)C(OC(C)=O)C(OC(C)=O)C1OC(C)=O (centres undefined)
3. O=C(O)CCC(N/C=C1/N=C(c2ccccc2)OC1=O)C(=O)O (centres undefined)
4. CC(=O)Oc1c2c(c(O)c3ccccc13)C(n1cnc3c(ncn3C3OC(CO)C4OC(C)(C)OC43)c1=N)CCC2 (centres undefined)

Resp:
1: > 100 µM (inactive); 2: > 100 µM (inactive); 3: > 100 µM (inactive); 4: 16.8 µM (inactive)

// each compound listed below needs its GI50
1. COc1ccc2c(c1)[C@@]13CCN4CC5=CCO[C@H]6CC(=O)N2[C@H]1[C@H]6[C@H]5C[C@H]43
2. CC(C)(Oc1ccc(Cl)cc1)C(=O)N(C(=O)N1CCCCC1)c1ccccc1
3. c1ccc2cc(-c3cc4ccccc4s3)ccc2c1

Resp:
> 100 µM (inactive)
14.2 µM (inactive)
> 100 µM (inactive)

Req: Give a short answer stating reported GI50 for "O=C1COc2cc3c(cc2N1)SCCC(=O)N3" .
Resp: > 100 µM (inactive)

###

# Tested on: A549
# TEST NAME: NCI tumour cell line growth inhibition, 48 h
Active and inactive are the calls of the source. Cut-off read from the data, not from the text of the source: active = GI50 up to about 1.1 µM and inactive = higher.
Consider the following compounds; for each one, report its GI50.

Some compounds with recorded GI50:
COMPOUND	GI50
C=CCn1c(=O)c(C(=O)NC(=O)OCC)cn(C2CCCCC2)c1=O	> 100 µM (inactive)
CCc1ccccc1NC(=O)C(C#N)C1=C(Cl)C(=O)c2ccccc2C1=O (centres undefined)	21.9 µM (inactive)
C=CCN1C[C@H](C)N([C@H](c2ccc(C(=O)N(CC)CCO)cc2)c2cccc(OC)c2)C[C@H]1C	> 100 µM (inactive)

Req: Provide one value: measured GI50 of "COc1ccc2c(c1)[C@@]13CCN4CC5=CCO[C@H]6CC(=O)N2[C@H]1[C@H]6[C@H]5C[C@H]43"
Resp: > 100 µM (inactive)

###

# Test system: COLO 205
# TEST NAME: NCI tumour cell line growth inhibition, 48 h
The source made the active and inactive calls. No stated cut-off is given here; in the data, active = GI50 up to about 1.1 µM and inactive = higher. Where a SMILES comes first, the peptide text is derived from it. The star is where a group is joined. Boc = CC(C)(C)OC(=O)*
Return exactly one item of active, inactive

MOLECULE	LABEL
CCNC(=O)C(C)C1CCC2(C)C=CC(=O)C(C)=C2C1O (configuration not stated)	inactive
COC(=O)C1=C([C@H]2COC(C)(C)O2)[C@H]2C[C@@H]1[C@@H]1OC(C)(C)O[C@@H]12	inactive
CC(=O)OCC1OC(SC2=N/C(=C\c3cc4c(=O)c5ccccc5sc4s3)C(=O)N2c2ccccc2)C(OC(C)=O)C(OC(C)=O)C1OC(C)=O (configuration not stated)	inactive

Req: Test call for this molecule, please: O=C1CC(C(=O)O)Cc2c(Br)ccc(O)c21 (configuration not stated)
Resp: inactive

Req: Please let me know the test result on file for NCC(=O)C(O)C(O)C(O)CO (configuration not stated) .
Resp: inactive

Req: Dear all, I need the recorded test outcome for "N#Cc1c(NN)nc(NN)c(C#N)c1-c1ccccc1" , thank you.
Resp: inactive

Req: Identify the outcome logged in this assay for the molecule shown: "CSc1cnc2ccccc2c1Sc1c[nH]c2ccccc2c1=O"
Resp: inactive

Req: What did the test return for "Cc1cc(C)c(OC(=O)Nc2cccc3ccccc23)c(-c2ccccc2)c1" ?
Resp: inactive

Req: Just curious, what result did COC1CCC(CO)OO1 (configuration not stated) get here?
Resp: inactive

Req: Record request — test call for CC(C)(C)OC(=O)NC(Cc1ccc(O)cc1)C(=O)N1CCCC1C(=O)O (stereo not drawn) (Boc-Tyr-Pro-OH; configuration not given here)
Resp: inactive

Req: How was "COC(=O)[C@@H]1CN(C(C)=O)C(=O)N1C(=O)OCc1ccccc1" classified in this test?
Resp: inactive

###

# System: LOX IMVI
# TEST NAME: NCI tumour cell line growth inhibition, 48 h
Activity calls are given as the source filed them. Cut-off read from the data, not from the text of the source: active = GI50 up to about 1.1 µM and inactive = higher.
MEASUREMENT TYPE: GI50

# example entries with known answers
COMPOUND	GI50
CCOC(=O)Nc1nc(-c2ccccc2)c(C)s1	> 100 µM (inactive)
NCC(=O)C(O)C(O)C(O)CO (stereo unspecified)	> 100 µM (inactive)
O=C(CSCC(=O)N/N=C\c1ccc(O)c(O)c1O)N/N=C\c1ccc(O)c(O)c1O	2.18 µM (inactive)
O=C1c2ccccc2-c2c1c1ccccc1c(=O)n2Cc1ccco1	> 100 µM (inactive)
CN(C)CCOC1(Cc2ccc(Cl)cc2Cl)CCC(C(C)(C)C)CC1 (stereo unspecified)	1.78 µM (inactive)
COc1cc2c(cc1OC)C1C(=O)c3c(O)cc4c(c3OC1CO2)C=CC(C)(C)O4 (stereo unspecified)	5.89 µM (inactive)

List GI50 for every entry below, keeping the order given.
1. c1ccc2c(CNCCCN3CCN(CCCNCc4cccc5ccccc45)CC3)cccc2c1
2. Cc1nc2ccccc2n1CCc1nc2ccccc2s1
3. COc1ccc(C[C@H](N)C(=O)N2C[C@@H](CO)C[C@@H](n3cnc4c(N(C)C)ncnc43)C2)cc1
4. CC(C)(CO)NC(=O)c1cccs1
5. COC(=O)C(=O)C(CC(=O)Nc1cccc(C(F)(F)F)c1)C(=O)OC (stereo unspecified)

Resp:
["1.35 µM (inactive)", "64.9 µM (inactive)", "> 100 µM (inactive)", "> 100 µM (inactive)", "> 100 µM (inactive)"]

###

# Test system: K562
# TEST NAME: NCI tumour cell line growth inhibition, 48 h
Active and inactive are the calls of the source. Rule as the data show it: active = GI50 up to about 1.1 µM and inactive = higher. Peptide text beside a SMILES is read from it. * marks the point of attachment. Cbz = O=C(OCc1ccccc1)*
MEASUREMENT TYPE: GI50

COMPOUND	TARGET OF ASSAY	GI50
CC(C)N(C(=O)C12C3C4C5(C#N)C3C1(I)C5C42I)C(C)C (centres undefined)	K562	> 52.8 µM (inactive)

Could you tell me GI50 for each of these compounds? They are listed below.
1. C1CNCCNCCNCCN1
2. CCOC(=O)C12C(C(=O)OC)=C(C)N(NC(=O)Nc3ccccc3)C1(N)N(NC(=O)Nc1ccccc1)C(C)=C2C(=O)OC (centres undefined)

Resp:
1: 70.5 µM (inactive); 2: 29.9 µM (inactive)

Req: State, in one line, measured GI50 of CCOC(=O)C(C)NC(=O)C(C)NC(=O)C(C)NC(=O)C(C)NC(=O)C(C)NC(=O)C(C)NC(=O)C(C)NC(=O)OCc1ccccc1 (centres undefined) (Cbz-AAAAAAA-OEt; configuration not given here)
Resp: > 100 µM (inactive)
